METHOD_NOTES: Pharmacokinetic study in male SD rats (intravenous, oral, oral co-administration with verapamil)
Type: in vivo, Sprague–Dawley rats
SETUP_CONDITIONS: male, Sprague-Dawley, rat, plasma, po, 20 mg/kg, range over oral doses 5, 10, 20 mg/kg

- SMILES_DATA: "C[C@@]12C[C@@]3(O)O[C@@H](O1)[C@]1(COC(=O)c4ccccc4)[C@H]3C[C@@]12O[C@@H]1O[C@H](CO)[C@@H](O)[C@H](O)[C@H]1O"
  Tmax: "30 to 42 min"

###

METHOD_NOTES: Pharmacokinetic study in male SD rats (intravenous, oral, oral co-administration with verapamil)
Assay type: in vivo, Sprague–Dawley rats
SETUP_CONDITIONS: male, Sprague-Dawley, rat, plasma, po, 20 mg/kg, oral 20 mg/kg co-administration with verapamil (50 mg/kg), n = 5

- SMILES_DATA: "C[C@@]12C[C@@]3(O)O[C@@H](O1)[C@]1(COC(=O)c4ccccc4)[C@H]3C[C@@]12O[C@@H]1O[C@H](CO)[C@@H](O)[C@H](O)[C@H]1O"
  AUC(0-inf): "892 ng·h/mL"

###

METHOD_NOTES: Pharmacokinetic study in male SD rats (intravenous, oral, oral co-administration with verapamil)
Assay type: in vivo, Sprague–Dawley rats
SETUP_CONDITIONS: male, Sprague-Dawley, rat, plasma, po, 5 mg/kg, oral mono-administration 5 mg/kg, n = 5
QUANTITY_KIND: AUC(0-t) (ng·h/mL)

- SMILES_DATA: "C[C@@]12C[C@@]3(O)O[C@@H](O1)[C@]1(COC(=O)c4ccccc4)[C@H]3C[C@@]12O[C@@H]1O[C@H](CO)[C@@H](O)[C@H](O)[C@H]1O"
  QUANTITY_KIND: "AUC(0-t)"
  UNIT_DESCRIPTOR: "ng·h/mL"
  RESULT_NUMBER: 64.7

###

METHOD_NOTES: Pharmacokinetic study in male SD rats (intravenous, oral, oral co-administration with verapamil)
Type: in vivo, Sprague–Dawley rats
SETUP_CONDITIONS: male, Sprague-Dawley, rat, plasma, po, 20 mg/kg, range over oral doses 5, 10, 20 mg/kg
QUANTITY_KIND: half-life

- COMPOUND: "C[C@@]12C[C@@]3(O)O[C@@H](O1)[C@]1(COC(=O)c4ccccc4)[C@H]3C[C@@]12O[C@@H]1O[C@H](CO)[C@@H](O)[C@H](O)[C@H]1O [PF, paeoniflorin]"
  QUANTITY_KIND: "half-life"
  RESULT: "30 to 48 min"

###

METHOD_NOTES: Pharmacokinetic study in male SD rats (intravenous, oral, oral co-administration with verapamil)
Assay type: in vivo, Sprague–Dawley rats
SETUP_CONDITIONS: male, Sprague-Dawley, rat, plasma, po, 10 mg/kg, oral mono-administration 10 mg/kg, n = 5
QUANTITY_KIND: AUC(0-inf) (ng·h/mL)

- COMPOUND: "C[C@@]12C[C@@]3(O)O[C@@H](O1)[C@]1(COC(=O)c4ccccc4)[C@H]3C[C@@]12O[C@@H]1O[C@H](CO)[C@@H](O)[C@H](O)[C@H]1O [PF, paeoniflorin]"
  QUANTITY_KIND: "AUC(0-inf)"
  UNIT_DESCRIPTOR: "ng·h/mL"
  RESULT_NUMBER: 84

###

METHOD_NOTES: Pharmacokinetic study in male SD rats (intravenous, oral, oral co-administration with verapamil)
Format: in vivo, Sprague–Dawley rats
SETUP_CONDITIONS: male, Sprague-Dawley, rat, plasma, po, 5 mg/kg, oral mono-administration 5 mg/kg, n = 5

- SMILES_DATA: "C[C@@]12C[C@@]3(O)O[C@@H](O1)[C@]1(COC(=O)c4ccccc4)[C@H]3C[C@@]12O[C@@H]1O[C@H](CO)[C@@H](O)[C@H](O)[C@H]1O"
  Cmax [ng/mL]: 42.3

###

METHOD_NOTES: Pharmacokinetic study in male SD rats (intravenous, oral, oral co-administration with verapamil)
Type: in vivo, Sprague–Dawley rats
SETUP_CONDITIONS: male, Sprague-Dawley, rat, plasma, po, 20 mg/kg, oral 20 mg/kg co-administration with verapamil vs intravenous 2 mg/kg; read-out: F
QUANTITY_KIND: bioavailability (%)

- SMILES_DATA: "C[C@@]12C[C@@]3(O)O[C@@H](O1)[C@]1(COC(=O)c4ccccc4)[C@H]3C[C@@]12O[C@@H]1O[C@H](CO)[C@@H](O)[C@H](O)[C@H]1O"
  UNIT_DESCRIPTOR: "%"
  RESULT_NUMBER: 3.7

###

METHOD_NOTES: Pharmacokinetic study in male SD rats (intravenous, oral, oral co-administration with verapamil)
Assay type: in vivo, Sprague–Dawley rats
SETUP_CONDITIONS: male, Sprague-Dawley, rat, plasma, po, 10 mg/kg, oral mono-administration 10 mg/kg, n = 5
QUANTITY_KIND: half-life (min)

- COMPOUND: "C[C@@]12C[C@@]3(O)O[C@@H](O1)[C@]1(COC(=O)c4ccccc4)[C@H]3C[C@@]12O[C@@H]1O[C@H](CO)[C@@H](O)[C@H](O)[C@H]1O [PF, paeoniflorin]"
  RESULT_NUMBER: 30

###

METHOD_NOTES: Pharmacokinetic study in male SD rats (intravenous, oral, oral co-administration with verapamil)
Format: in vivo, Sprague–Dawley rats
SETUP_CONDITIONS: male, Sprague-Dawley, rat, plasma, po, 20 mg/kg, oral 20 mg/kg co-administration with verapamil (50 mg/kg), n = 5
QUANTITY_KIND: CL/F (L/h/kg)

- SMILES_DATA: "C[C@@]12C[C@@]3(O)O[C@@H](O1)[C@]1(COC(=O)c4ccccc4)[C@H]3C[C@@]12O[C@@H]1O[C@H](CO)[C@@H](O)[C@H](O)[C@H]1O"
  UNIT_DESCRIPTOR: "L/h/kg"
  RESULT_NUMBER: 29.2

###

METHOD_NOTES: Pharmacokinetic study in male SD rats (intravenous, oral, oral co-administration with verapamil)
Type: in vivo, Sprague–Dawley rats
SETUP_CONDITIONS: male, Sprague-Dawley, rat, plasma, po, 5 mg/kg, oral mono-administration 5 mg/kg, n = 5; read-out: MRT0–∞
QUANTITY_KIND: MRT inf (h)

- MOLECULE: "C[C@@]12C[C@@]3(O)O[C@@H](O1)[C@]1(COC(=O)c4ccccc4)[C@H]3C[C@@]12O[C@@H]1O[C@H](CO)[C@@H](O)[C@H](O)[C@H]1O [PF, paeoniflorin]"
  RESULT_NUMBER: 1.3

###

METHOD_NOTES: Pharmacokinetic study in male SD rats (intravenous, oral, oral co-administration with verapamil)
Type: in vivo, Sprague–Dawley rats
SETUP_CONDITIONS: male, Sprague-Dawley, rat, plasma, po, 10 mg/kg, oral mono-administration 10 mg/kg, n = 5; read-out: Vz/F

- SMILES_DATA: "C[C@@]12C[C@@]3(O)O[C@@H](O1)[C@]1(COC(=O)c4ccccc4)[C@H]3C[C@@]12O[C@@H]1O[C@H](CO)[C@@H](O)[C@H](O)[C@H]1O"
  Vd/F [L/kg]: 89

###

METHOD_NOTES: Pharmacokinetic study in male SD rats (intravenous, oral, oral co-administration with verapamil)
Type: in vivo, Sprague–Dawley rats
SETUP_CONDITIONS: male, Sprague-Dawley, rat, plasma, po, 5 mg/kg, oral mono-administration 5 mg/kg, n = 5
Protocol: The animal experiment was approved by the Experimental Animal Ethics Committee of Shanghai University of Traditional Chinese Medicine (the Ethics Number: PZSHUTCM201016015). […] The plasma drug concentration of the PF was quantitated, according to the calibration curve, by the ratio of the analyte-to-IS peak areas obtained for each sample. […] Subsequently, the main pharmacokinetic parameters were analyzed by an independent sample t-test. […]
QUANTITY_KIND: half-life (min)

- SMILES_DATA: "C[C@@]12C[C@@]3(O)O[C@@H](O1)[C@]1(COC(=O)c4ccccc4)[C@H]3C[C@@]12O[C@@H]1O[C@H](CO)[C@@H](O)[C@H](O)[C@H]1O"
  QUANTITY_KIND: "half-life"
  UNIT_DESCRIPTOR: "min"
  RESULT_NUMBER: 48

###

METHOD_NOTES: Pharmacokinetic study in male SD rats (intravenous, oral, oral co-administration with verapamil)
Assay type: in vivo, Sprague–Dawley rats
SETUP_CONDITIONS: male, Sprague-Dawley, rat, plasma, po, 20 mg/kg, range over oral doses 5, 10, 20 mg/kg

- SMILES_DATA: "C[C@@]12C[C@@]3(O)O[C@@H](O1)[C@]1(COC(=O)c4ccccc4)[C@H]3C[C@@]12O[C@@H]1O[C@H](CO)[C@@H](O)[C@H](O)[C@H]1O"
  CL/F: "1640 to 2420 mL/min/kg"
